- System: hiPSCs differentiating into neural rosette-like cells
MEASUREMENT_LABEL: morphology of neural rosette-like cells

COMPOUND	RESULT
CC1=C(/C=C/C(C)=C/C=C/C(C)=C/C(=O)O)C(C)(C)CCC1 [Tretinoin (Retinoic acid)]	disrupted
C=CC[C@@H]1/C=C(\C)C[C@H](C)C[C@H](OC)[C@H]2O[C@@](O)(C(=O)C(=O)N3CCCC[C@H]3C(=O)O[C@H](/C(C)=C/[C@@H]3CC[C@@H](O)[C@H](OC)C3)[C@H](C)[C@@H](O)CC1=O)[C@H](C)C[C@@H]2OC [Tacrolimus]	disrupted
O=C1NC(=O)C(c2ccccc2)(c2ccccc2)N1 [Phenytoin]	disrupted

Just for reference, paper PMC12508576 is where these values come from.
